test system: bacteria; assay: Antibacterial activity of the peptides, broth microdilution MIC, mean activity (Table II); assay type: cell-based; details: overnight incubation (18 to 24 h)
No end group written: not given here.
Parameter: Mean Activity. Scope: all listed entries.
Your answer should be a plain number; it is taken to be in µM.

In the examples that follow, each entry is paired with its recorded Mean Activity.
>>> observedresult("Magainin I: Magainins: 23 amino acids in length, derived from the African Clawed Frog (GIGKFLHSAGKFGKAFVGEIMKS; Magainin-1; UniProt P11006 37-59, looked up)")
30
>>> observedresult("Pyrrhocoricin (D): naturally derived molecule tested for comparative purposes (VDKGSYLPRPTPPRPIYNRN; not fully specified; UniProt P37362 1-20, looked up)")
23.33
>>> observedresult("Pyrrhocoricin (H): naturally derived molecule tested for comparative purposes (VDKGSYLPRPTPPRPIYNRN; UniProt P37362 1-20, looked up)")
26.67
>>> observedresult("KWCFRVCYRGICYRRCR [TP, defensin-like peptide found in the hemolymph of the horseshoe crab]")
0.3

The recorded Mean Activity for FKLRAKIKVRLRAKIKL [D4E1, D4E1 (AgroMed), earlier synthetic lytic peptide tested by a number of labs] is 0.77
